Please respond with reported pIC50 for every item in the list.
- system tested: human CH24H (Homo sapiens (Human))
- Sequence (Q9Y6A2 whole entry): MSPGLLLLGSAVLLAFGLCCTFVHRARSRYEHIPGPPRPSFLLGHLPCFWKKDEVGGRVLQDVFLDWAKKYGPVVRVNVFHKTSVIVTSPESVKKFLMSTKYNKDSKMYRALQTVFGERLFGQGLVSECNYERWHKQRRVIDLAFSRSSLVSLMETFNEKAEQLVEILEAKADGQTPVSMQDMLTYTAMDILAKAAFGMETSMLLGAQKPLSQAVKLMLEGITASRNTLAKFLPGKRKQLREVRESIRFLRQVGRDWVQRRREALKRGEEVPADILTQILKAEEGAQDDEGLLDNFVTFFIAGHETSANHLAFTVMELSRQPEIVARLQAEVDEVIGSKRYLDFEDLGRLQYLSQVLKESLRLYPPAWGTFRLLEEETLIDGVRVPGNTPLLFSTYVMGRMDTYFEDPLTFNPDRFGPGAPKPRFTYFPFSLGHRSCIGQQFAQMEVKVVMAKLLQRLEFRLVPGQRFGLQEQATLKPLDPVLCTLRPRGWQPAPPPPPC
- assay procedure: Measurement of CH24H inhibitory activity (24-HC produced from [14C]cholesterol by human CH24H lysate)
- condition info: [14C]cholesterol 15 μM, 37° C. for 5 hr
Answers are plain numbers, as −log10 of the molar value.

Here is how some compounds turned out for pIC50.
// compound CN(C(=O)C1CCN(c2cnccc2-n2cc(Cl)cn2)CC1)C1CCOCC1 [Reference Example 3] , assay human CH24H (Homo sapiens (Human)), pIC50 value: 8.13

// compound O=C(C1CCN(c2cnccc2-n2cc(Cl)cn2)CC1)N1CC(F)C1 [Reference Example 5] , assay human CH24H (Homo sapiens (Human)), pIC50 value: 7.72

// compound O=C(C1CCN(c2cncnc2-c2ccc(F)cc2)CC1)N1CC(F)C1 [Reference Example 2] , assay human CH24H (Homo sapiens (Human)), pIC50 value: 8.06

State recorded pIC50 for all listed compounds.
1. Cc1cnc(-c2ccncc2N2CCC(C(=O)N3CC(F)C3)CC2)s1 [Reference Example 21]
2. O=C(C1CCN(c2cncnc2-c2ccc(F)cc2)CC1)N1CC[C@@H](F)C1 [Reference Example 11]

Response:
1: 8.31; 2: 7.80

State recorded pIC50 for all listed compounds.
1. CN(C(=O)C1CCN(c2cncnc2-c2ccc(F)cc2)CC1)C1CC1 [Reference Example 1]
2. CN(C(=O)C1CCN(c2cnccc2-n2cc(Cl)cn2)CC1)[C@H]1CCOC1 [Reference Example 13]
3. Cc1cnn(-c2ccncc2N2CCC(C(=O)N3CC(F)C3)CC2)c1 [Reference Example 4]
4. CN(C(=O)C1CCN(c2cnccc2-n2cc(Cl)cn2)CC1)[C@@H]1CCOC1 [Reference Example 14]
5. O=C(C1CCN(c2cncnc2-c2ccc(F)cc2)CC1)N1CC[C@H](F)C1 [Reference Example 10]

Response:
1. 8.27
2. 7.70
3. 8.15
4. 7.77
5. 7.70
